system: U-251; test: NCI tumour cell line growth inhibition, 48 h
Active and inactive are the calls of the source. No stated cut-off is given here; in the data, active = GI50 up to about 1.1 µM and inactive = higher.
Possible outcomes: active, inactive

molecule=O=C(N/N=C(COc1ccc(Cl)cc1)\N=C\c1ccncc1)c1ccncc1 discrete_label=inactive
molecule="CC(NC(=O)C(NC(=O)C(NC(=O)C(F)(F)F)C(C)C)C(C)C)C(=O)Oc1c(Cl)c(Cl)c(Cl)c(Cl)c1Cl (configuration not stated)" discrete_label=inactive
molecule=Nc1nc(N)c(-c2cccc(C(F)(F)F)c2)c(Cc2cccc(C(F)(F)F)c2)n1 discrete_label=inactive
molecule=NCCC1([N+](=O)[O-])CCNCC1 discrete_label=inactive
molecule=COc1cc(/C=C/c2cc(=O)cc(/C=C/c3ccc(O)c(OC)c3)o2)ccc1O discrete_label=inactive
molecule="CCOC(=O)CCC(NC(=O)c1ccc(Nc2nc3ccccc3nc2C(=O)OCC)s1)C(=O)OCC (configuration not stated)" discrete_label=inactive
molecule=O=C1c2ccccc2CN1c1ccc(O)cc1 discrete_label=inactive
molecule=O=[N+]([O-])c1ccc(COc2cccc3cccnc23)cc1 discrete_label=inactive
molecule=Cc1ccc(-n2c3nc(=O)n(C)c(=O)c-3nc3ccccc32)c(C)c1 discrete_label=inactive
molecule="C=CCc1cc(OC)c2c(c1)C(OC(C)=O)CC(c1ccc(OC)c(OC)c1)O2 (configuration not stated)" discrete_label=inactive
molecule="Cn1c2c(c3ccccc31)CCN=C2C1CCCOC1=O (configuration not stated)" discrete_label=inactive
molecule=COC(=O)C1=C(C(=O)OC)C2(c3ccccc3)OC1(c1ccccc1)c1cc3ccccc3cc12 discrete_label=inactive
molecule=COc1ccc(CCNC(=O)CCc2ccccc2CO)cc1OC discrete_label=inactive
molecule=O=C(/C=C/c1ccc2c(c1)OCO2)CC(=O)/C=C/c1ccc2c(c1)OCO2 discrete_label=inactive
molecule=Cc1cc(-c2ccc(C(=O)C(Cl)(Cl)Cl)[nH]2)on1 discrete_label=inactive
molecule=COc1cc2c(cc1C)NC(=O)/C2=C/c1c(Cl)[nH]c2cc(C)c(OC)cc12 discrete_label=inactive
molecule=N=C(Nc1nc(-c2ccccn2)cc2ccccc12)c1ccccn1 discrete_label=active
molecule=Clc1ccc(C(n2cc(Br)cn2)n2cc(Br)cn2)cc1 discrete_label=inactive
molecule=NC(=O)c1cccc([C@@H]2O[C@H](CO)[C@@H](O)[C@H]2O)c1 discrete_label=inactive
molecule="CCOP(=O)(O)C(Nc1ccc(/N=N/c2ccccc2)cc1)c1ccc(C(Nc2ccc(/N=N/c3ccccc3)cc2)P(=O)(O)OCC)cc1 (configuration not stated)" discrete_label=inactive
molecule=COc1cc(/N=C(\N)N=C(N)N)c2ncccc2c1 discrete_label=inactive
molecule=CO/N=C(\C(=O)Nc1cncs1)c1csc(N)n1 discrete_label=inactive

###

# reported GI50; entries follow
test system: UACC-257; experiment: NCI tumour cell line growth inhibition, 48 h
The source made the active and inactive calls. Rule as the data show it: active = GI50 up to about 1.1 µM and inactive = higher.
Assay endpoint: GI50

compound=Cc1ccc(C(=O)/C=C(\O)C(=O)NC23CC4CC(CC(C4)C2)C3)cc1 assay_system=UACC-257 assay_endpoint=GI50 endpoint_value="> 10 µM (inactive)"
compound=COc1cc([C@@H]2c3cc4c(cc3[C@@H](c3c(O)cc(O)c5c3O[C@H](c3ccc(O)c(O)c3)[C@H](OC(=O)c3cc(O)c(O)c(O)c3)C5)[C@H]3COC(=O)[C@H]23)OCO4)cc(OC)c1O assay_system=UACC-257 assay_endpoint=GI50 endpoint_value="> 100 µM (inactive)"
compound=Cc1cc2c(O)c(c1)CN(Cc1ccccc1)Cc1cc(C)cc(c1O)CN(Cc1ccccc1)Cc1cc(C)cc(c1O)CN(Cc1ccccc1)C2 assay_system=UACC-257 assay_endpoint=GI50 endpoint_value="> 100 µM (inactive)"
compound="COC(=O)C(=O)C(C(=O)C(=O)Nc1cc([N+](=O)[O-])ccc1C#N)c1nc2ccccc2nc1O (configuration not stated)" assay_system=UACC-257 assay_endpoint=GI50 endpoint_value="> 100 µM (inactive)"
compound=Cc1c[nH]c(C(=O)O)c1-c1ccc2c(-c3ccccc3)nc3ccccc3n12 assay_system=UACC-257 assay_endpoint=GI50 endpoint_value="30.8 µM (inactive)"
compound=COc1cc(O)c(C(=O)/C=C/c2ccccc2)c(OC)c1 assay_system=UACC-257 assay_endpoint=GI50 endpoint_value="10.8 µM (inactive)"
compound=CCCCC(=O)c1ccc2ccccc2c1O assay_system=UACC-257 assay_endpoint=GI50 endpoint_value="> 100 µM (inactive)"
compound="N#CCCC(CC#N)N1CCN(CCO)CC1 (configuration not stated)" assay_system=UACC-257 assay_endpoint=GI50 endpoint_value="> 100 µM (inactive)"
compound=COC(=O)[C@H]1C=C[C@@H](C)n2c(=O)c3cc4ccccc4cc3c(=O)n21 assay_system=UACC-257 assay_endpoint=GI50 endpoint_value="> 100 µM (inactive)"
compound=O=C(O)[C@@H](NS(=O)(=O)c1ccc(F)cc1)c1ccccc1 assay_system=UACC-257 assay_endpoint=GI50 endpoint_value="> 100 µM (inactive)"
compound=O=c1[nH]cnc2c1sc1nc3ccccc3n12 assay_system=UACC-257 assay_endpoint=GI50 endpoint_value="> 100 µM (inactive)"
compound=O=[N+]([O-])c1ccc(-c2nc3cc(Cl)ccc3[nH]2)cc1 assay_system=UACC-257 assay_endpoint=GI50 endpoint_value="76 µM (inactive)"
compound=S=C(N/N=C/c1ccccn1)N1CC2CCC(CC2)C1 assay_system=UACC-257 assay_endpoint=GI50 endpoint_value="< 0.01 µM (active)"
compound="CN(C)CCCNc1ncnc2c1ncn2C1OC(CO)C(O)C1O (configuration not stated)" assay_system=UACC-257 assay_endpoint=GI50 endpoint_value="> 100 µM (inactive)"
compound=Cc1ccc(Cc2n[nH]c(=O)n2N2C(=O)c3ccccc3C2=O)cc1 assay_system=UACC-257 assay_endpoint=GI50 endpoint_value="> 100 µM (inactive)"
compound="CN(CC1NCCCC1O)C12CC3CC(CC(C3)C1)C2 (configuration not stated)" assay_system=UACC-257 assay_endpoint=GI50 endpoint_value="> 100 µM (inactive)"
compound="C=C=CC(NC(=O)c1ccccc1)(C(=O)O)C(F)(F)F (configuration not stated)" assay_system=UACC-257 assay_endpoint=GI50 endpoint_value="> 100 µM (inactive)"
compound=O=S(=O)(O)c1ccc(/N=N/c2ccc(/N=N/c3c(O)c(S(=O)(=O)O)cc4cc(S(=O)(=O)O)ccc34)cc2)cc1 assay_system=UACC-257 assay_endpoint=GI50 endpoint_value="> 100 µM (inactive)"
compound=COC1=NCc2ccccc2-c2ccccc21 assay_system=UACC-257 assay_endpoint=GI50 endpoint_value="> 100 µM (inactive)"
compound=N=C(Nc1nc(-c2ccccn2)cc2ccccc12)c1ccccn1 assay_system=UACC-257 assay_endpoint=GI50 endpoint_value="< 0.0172 µM (active)"
compound="COC(=O)C1Cc2c([nH]c3ccccc23)C(c2cccc(O)c2)N1 (configuration not stated)" assay_system=UACC-257 assay_endpoint=GI50 endpoint_value="90.8 µM (inactive)"
compound=COC(=O)c1c(N)n[nH]c1N assay_system=UACC-257 assay_endpoint=GI50 endpoint_value="> 100 µM (inactive)"
compound=Cn1c2ccccc2n2c3ccccc3c(=O)c(C#N)c12 assay_system=UACC-257 assay_endpoint=GI50 endpoint_value="55.6 µM (inactive)"
compound=COc1cc(/C=C2\Cc3cc(OC)c(OC)cc3C2=O)cc(OC)c1 assay_system=UACC-257 assay_endpoint=GI50 endpoint_value="> 87.3 µM (inactive)"
compound=Nc1cc2c3c(cccc3c1)NC2=O assay_system=UACC-257 assay_endpoint=GI50 endpoint_value="> 100 µM (inactive)"
compound="COc1cccc2c1C(=O)c1c(O)c3c(c(O)c1C2=O)CC(O)(C(O)CO)CC3OC1CC(N2CCOCC2)C(O)C(C)O1 (configuration not stated)" assay_system=UACC-257 assay_endpoint=GI50 endpoint_value="0.00338 µM (active)"
compound=CC(C)(C)C(=O)CP(=O)(O)O assay_system=UACC-257 assay_endpoint=GI50 endpoint_value="> 100 µM (inactive)"
compound=Cn1nc(S(N)(=O)=O)s/c1=N/C(N)=S assay_system=UACC-257 assay_endpoint=GI50 endpoint_value="> 100 µM (inactive)"
compound="CC1(C)C2CCC(CN)(C2)C1N (configuration not stated)" assay_system=UACC-257 assay_endpoint=GI50 endpoint_value="14.8 µM (inactive)"
compound=CSc1ccc2c(cc1=O)[C@@H](NC(C)=O)CCc1cc(O)c(O)c(O)c1-2 assay_system=UACC-257 assay_endpoint=GI50 endpoint_value="37.2 µM (inactive)"
compound=COc1ccc2c(c1)[n+]([O-])c(/C(C)=N/NC(=O)CC#N)c[n+]2[O-] assay_system=UACC-257 assay_endpoint=GI50 endpoint_value="> 100 µM (inactive)"
compound=CCO/C=C1\N=C(c2ccc(Cl)c(Cl)c2)OC1=O assay_system=UACC-257 assay_endpoint=GI50 endpoint_value="> 100 µM (inactive)"
compound=COc1cc(C(=O)Nc2cc(C(N)=O)cc(OC)c2OC)cc(NC(=O)/C=C/c2ccccc2)c1OC assay_system=UACC-257 assay_endpoint=GI50 endpoint_value="> 100 µM (inactive)"
compound="Cc1cn(C2C=CC(COP(=O)(OCc3ccc([N+](=O)[O-])o3)N(C)CCCCCl)O2)c(=O)[nH]c1=O (configuration not stated)" assay_system=UACC-257 assay_endpoint=GI50 endpoint_value="5.55 µM (inactive)"
compound="CCOC(=O)C1CCCCN1CCc1c[nH]c2ccccc12 (configuration not stated)" assay_system=UACC-257 assay_endpoint=GI50 endpoint_value="> 100 µM (inactive)"
compound="CC(NC(=O)C(NC(=O)C(NC(=O)C(F)(F)F)C(C)C)C(C)C)C(=O)Oc1c(Cl)c(Cl)c(Cl)c(Cl)c1Cl (configuration not stated)" assay_system=UACC-257 assay_endpoint=GI50 endpoint_value="> 100 µM (inactive)"
compound="CC(CCc1ccc2c(c1)c(N)c1ccc(N)cc1[n+]2[O-])CC(C)(C)C (configuration not stated)" assay_system=UACC-257 assay_endpoint=GI50 endpoint_value="1.99 µM (inactive)"
compound=Cc1cc(-c2ccc(C(=O)C(Cl)(Cl)Cl)[nH]2)on1 assay_system=UACC-257 assay_endpoint=GI50 endpoint_value="42.1 µM (inactive)"
compound="CC1(C)c2ccccc2N2C(c3ccccc3)=NOC21C (configuration not stated)" assay_system=UACC-257 assay_endpoint=GI50 endpoint_value="> 100 µM (inactive)"
compound=CC[C@@]1(O)C(=O)OCc2c1cc1n(c2=O)Cc2c-1nc1ccccc1c2CC[Si](C)(C)C assay_system=UACC-257 assay_endpoint=GI50 endpoint_value="< 0.0391 µM (active)"
compound=Oc1ccc2c(c1)c1c(n2CCN2CCOCC2)-c2ccccc2CC1 assay_system=UACC-257 assay_endpoint=GI50 endpoint_value="32.9 µM (inactive)"
compound=CCOC(=O)C(COS(C)(=O)=O)(COS(C)(=O)=O)C(=O)OCC assay_system=UACC-257 assay_endpoint=GI50 endpoint_value="> 100 µM (inactive)"
